- ASSAY SYSTEM: human PDE1B enzyme (Homo sapiens (Human))
- TEST DETAILS: IMAP TR-FRET PDE1B enzymatic assay
- Assay type: biochemical
- CONDITION SUMMARY: negative log of half-maximal molar inhibitory concentration; 200 nM FAM-cAMP; values given as bins; read-out: PDE1b (pIC50) (converted)
- Description: PDE1B inhibition was determined by an IMAP TR-FRET assay. The IMAP TR-FRET PDE assay was optimized for concentration of enzyme, Calmodulin, cAMP or cGMP substrate, DMSO tolerance, and incubation time. […] Plates were incubated for 1 hour at room temperature and were read on a Viewlux multimode plate reader (Perkin Elmer). […] Ratios of acceptor and donor were then calculated. […]
REPORTED METRIC: IC50

INSERT INTO results (compound, result) VALUES
  ('Cc1oc2ncnc(NC3(C)CC3)c2c1C(=O)N1CCn2nc(C#N)cc2C1', '100 to 1000 nM'),
  ('Cc1oc2ncnc(NC3(C)CC3)c2c1C(=O)NCc1ccon1', '10 to 100 nM'),
  ('Cc1oc2ncnc(NC3(C)CC3)c2c1C(=O)NCc1ccnc(C2CC2)n1', '10 to 100 nM'),
  ('Cc1oc2ncnc(NC3(C)CC3)c2c1C(=O)N1CCC(c2cnn(C)c2)C1 (centres unmarked)', '10 to 100 nM'),
  ('Cc1oc2ncnc(NC3(C)CC3)c2c1C(=O)NCc1ccccc1', '10 to 100 nM'),
  ('Cc1oc2ncnc(NC3(C)CC3)c2c1C(=O)NCC1COC1', '100 to 1000 nM'),
  ('COc1ncc2c(n1)CN(C(=O)c1c(C)oc3ncnc(NC4(C)CC4)c13)CC2', '100 to 1000 nM'),
  ('C=C(C)c1ncnc2c1CCN(C(=O)c1c(C)oc3ncnc(NC4(C)CC4)c13)C2', '10 to 100 nM'),
  ('Cc1nc(CNC(=O)c2c(C)oc3ncnc(NC4(C)CC4)c23)co1', '10 to 100 nM'),
  ('COc1ccccc1CN(C)C(=O)c1c(C)oc2ncnc(NC3(C)CC3)c12', '10 to 100 nM'),
  ('Cc1oc2ncnc(NC3(C)CC3)c2c1C(=O)N1CCc2c(ncnc2OC(C)C)C1', '10 to 100 nM'),
  ('COc1ccc(CC2(NC(=O)c3c(C)oc4ncnc(NC5(C)CC5)c34)CC2)cc1', '10 to 100 nM'),
  ('COc1ccc(CN(C)C(=O)c2c(C)oc3ncnc(NC4(C)CC4)c23)cc1O', '10 to 100 nM'),
  ('Cc1oc2ncnc(NC3(C)CC3)c2c1C(=O)N1CCc2c(nc(-c3ccc(F)cc3)[nH]c2=O)C1', '10 to 100 nM'),
  ('Cc1oc2ncnc(NC3(C)CC3)c2c1C(=O)N1Cc2cc(C3CCOCC3)cnc2C1', '100 to 1000 nM'),
  ('Cc1oc2ncnc(NC3(C)CC3)c2c1C(=O)NCCC(C)C', '10 to 100 nM'),
  ('Cc1oc2ncnc(NC3(C)CC3)c2c1C(=O)NC1(C2CC2)CCOCC1', '10 to 100 nM'),
  ('Cc1cn2c(n1)CN(C(=O)c1c(C)oc3ncnc(NC4(C)CC4)c13)CC2', '100 to 1000 nM'),
  ('Cc1oc2ncnc(NC3(C)CC3)c2c1C(=O)NCc1cccc(F)n1', '10 to 100 nM'),
  ('Cc1oc2ncnc(NC3(C)CC3)c2c1C(=O)NCc1ccc(OC(F)(F)F)cc1', '10 to 100 nM'),
  ('Cc1oc2ncnc(NC3(C)CC3)c2c1C(=O)NCc1ccc(C#N)c(F)c1', '10 to 100 nM'),
  ('Cc1cccnc1NC(=O)c1c(C)oc2ncnc(NC3(C)CC3)c12', '100 to 1000 nM'),
  ('Cc1oc2ncnc(NC3(C)CC3)c2c1C(=O)N1Cc2nc(C3CC3)[nH]c(=O)c2C1', '100 to 1000 nM'),
  ('Cc1cc(CNC(=O)c2c(C)oc3ncnc(NC4(C)CC4)c23)on1', '10 to 100 nM'),
  ('Cc1oc2ncnc(NC3(C)CC3)c2c1C(=O)N1CCCC2(C1)C(=O)N(C)c1ccccc12 (centres unmarked)', '100 to 1000 nM'),
  ('Cc1oc2ncnc(NC3(C)CC3)c2c1C(=O)N1CCc2cccc(O)c2C1', '10 to 100 nM'),
  ('Cc1oc2ncnc(NC3(C)CC3)c2c1C(=O)N1CCc2c(ncnc2N(C)C2CC2)C1', '10 to 100 nM'),
  ('Cc1oc2ncnc(NC3(C)CC3)c2c1C(=O)NCc1ccnc(F)c1', '10 to 100 nM'),
  ('Cc1oc2ncnc(NC3(C)CC3)c2c1C(=O)NCc1ncc(F)cn1', '10 to 100 nM'),
  ('Cc1oc2ncnc(NC3(C)CC3)c2c1C(=O)NCC1CCOCC1', '10 to 100 nM'),
  ('Cc1ncnc2c1CCN(C(=O)c1c(C)oc3ncnc(NC4(C)CC4)c13)C2', '10 to 100 nM'),
  ('Cc1oc2ncnc(NC3(C)CC3)c2c1C(=O)NCc1cc(=O)[nH]cn1', '10 to 100 nM'),
  ('Cc1oc2ncnc(NC3(C)CC3)c2c1C(=O)N1CCC2(C1)OCc1ccccc12 (centres unmarked)', '10 to 100 nM'),
  ('Cc1cn(C)nc1NC(=O)c1c(C)oc2ncnc(NC3(C)CC3)c12', '10 to 100 nM'),
  ('Cc1oc2ncnc(NC3(C)CC3)c2c1C(=O)N1CCC(c2ccncc2)C1 (centres unmarked)', '10 to 100 nM');
